Recorded values, source ChEMBL document CHEMBL5537198.

assay: in vivo; conditions: Wistar Han, rat, urine, iv; at 0.6 to 2 µmol/kg
Measure Name: dose excreted (%)

| Item Smiles | Measure Name | Observed Measurement |
| --- | --- | --- |
| CC(=O)N[C@H]1CSCCC(=O)N2CN3CN(C2)C(=O)CCSC[C@H](NC(=O)[C@H](CC(=O)O)NC(=O)[C@H](CCC(N)=O)NC(=O)[C@H](CC(C)(C)C)NC(=O)[C@H](Cc2cccc4ccccc24)NC(=O)[C@H](C)N(C)C1=O)C(=O)N[C@@H](Cc1cn(C)c2ccccc12)C(=O)N[C@@H](CCCNC(=N)N(C)C)C(=O)NCC(=O)N[C@@H](Cc1ccc(F)cc1)C(=O)N[C@H](C(=O)N[C@@H](C)C(N)=O)CSCCC3=O | dose excreted | 0.9 |
| CC(=O)N[C@H]1CSCCC(=O)N2CN3CN(C2)C(=O)CCSC[C@H](NC(=O)[C@H](CC(=O)O)NC(=O)[C@H](CCC(=O)O)NC(=O)[C@H](CC(C)C)NC(=O)[C@H](Cc2cccc4ccccc24)NC(=O)[C@H](CCC(N)=O)NC1=O)C(=O)N[C@@H](Cc1c[nH]c2ccccc12)C(=O)N[C@@H](CCCNC(=N)N(C)C)C(=O)NCC(=O)N[C@@H](Cc1ccc(F)cc1)C(=O)N[C@H](C(=O)N[C@@H](C)C(N)=O)CSCCC3=O | dose excreted | 0.3 |
| CC(=O)N[C@H]1CSCCC(=O)N2CN3CN(C2)C(=O)CCSC[C@H](NC(=O)[C@H](CC(=O)O)NC(=O)[C@H](CCC(N)=O)NC(=O)[C@H](CC(C)(C)C)NC(=O)[C@H](Cc2cn(C)c4ccccc24)NC(=O)[C@H](CCC(N)=O)NC1=O)C(=O)N[C@@H](Cc1cn(C)c2ccccc12)C(=O)N[C@@H](CCCNC(=N)N(C)C)C(=O)NCC(=O)N[C@@H](Cc1ccc(F)c(Cl)c1)C(=O)N[C@H](C(N)=O)CSCCC3=O | dose excreted | 0.8 |
